Tyrosine-protein phosphatase non-receptor type 6 (Homo sapiens, UniProt P29350) IC50, compiled from various sources.

compound: CO[C@H]1O[C@H](COCc2cn(-c3ccc(C(=O)C(=O)O)cc3)nn2)[C@@H](OCc2ccccc2)[C@H](OCc2ccccc2)[C@H]1OCc1ccccc1
target.system: Tyrosine-protein phosphatase non-receptor type 6 (Homo sapiens, UniProt P29350)
IC50: > 100 µM

compound: CO[C@H]1O[C@H](Cn2cc(Cn3cnc4c(Cl)nc(N)nc43)nn2)[C@H](OCc2ccccc2)[C@H](OCc2ccccc2)[C@H]1OCc1ccccc1
target.system: Tyrosine-protein phosphatase non-receptor type 6 (Homo sapiens, UniProt P29350)
IC50: > 80 µM

compound: CCCCCCCCCCCCC/C=C/[C@@]12C(=O)O[C@@H](C)[C@@H]1[C@H](C(C)=O)C(C(=O)O)=CC2CCCCCCCCCCCC (stereo partly drawn)
target.system: Tyrosine-protein phosphatase non-receptor type 6 (Homo sapiens, UniProt P29350)
IC50: 4.41 µM
